Entries and their measured DC50 follow.
Target: IRAK3 (Homo sapiens)
Construct: IRAK Endogenous HTRF Degradation Assay; endogenous in cells
Sequence (Q9Y616 whole entry): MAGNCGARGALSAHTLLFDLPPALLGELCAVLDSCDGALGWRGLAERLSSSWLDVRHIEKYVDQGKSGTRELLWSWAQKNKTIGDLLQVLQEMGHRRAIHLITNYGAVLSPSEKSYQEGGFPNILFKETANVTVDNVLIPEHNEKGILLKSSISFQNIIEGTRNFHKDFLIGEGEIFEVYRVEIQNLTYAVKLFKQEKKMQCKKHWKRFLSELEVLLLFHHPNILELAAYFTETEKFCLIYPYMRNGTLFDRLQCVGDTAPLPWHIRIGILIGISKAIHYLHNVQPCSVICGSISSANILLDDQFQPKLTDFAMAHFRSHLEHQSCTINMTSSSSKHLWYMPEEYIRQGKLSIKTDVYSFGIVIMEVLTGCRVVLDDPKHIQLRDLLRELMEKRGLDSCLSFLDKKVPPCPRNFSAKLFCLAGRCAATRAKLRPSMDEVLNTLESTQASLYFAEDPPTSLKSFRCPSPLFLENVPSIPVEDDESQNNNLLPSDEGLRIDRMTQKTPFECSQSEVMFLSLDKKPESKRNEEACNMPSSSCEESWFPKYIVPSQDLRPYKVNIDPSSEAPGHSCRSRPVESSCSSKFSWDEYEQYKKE
Assay: IRAK Endogenous HTRF Degradation Assay
Assay type: cell-based
Details: endogenous IRAK3, overnight incubation; concentration at which 50% degradation is achieved
property: DC50

>>> result("Cc1cccc(-c2cnc(Nc3cccc(N4CCN(CCNC(=O)COc5ccc6c(c5)C(=O)N(C5CCC(=O)NC5=O)C6=O)CC4)c3)c3nccn23)c1 (stereo not drawn)")
"> 10 µM"
>>> result("Cc1cccc(-c2cnc(Nc3cnn(C4CCN(CCNC(=O)COc5ccc6c(c5)C(=O)N(C5CCC(=O)NC5=O)C6=O)CC4)c3)c3nccn23)c1 (stereo not drawn)")
"0.02 µM"
>>> result("Cc1cccc(-c2cnc(Nc3ccc(N4CCN(C(=O)COc5ccc6c(c5)C(=O)N(C5CCC(=O)NC5=O)C6=O)CC4)cc3)c3nccn23)c1 (stereo not drawn)")
"> 10 µM"

Hello, the source for this data is patent US20260028343A1, in case you need it.
